- Tested on: S. aureus 6538
quantity_measured: MIC (µg/mL)
Write the answer as a number in µg/mL, unit excluded.

Some solved entries appear below for comparison.
[
  {
    "compound": "CC(C)(C)CN1CC/C(=C\\C2=C(C(=O)O)N3C(=O)[C@@H](NC(=O)/C(=N\\O)c4csc(N)n4)[C@H]3SC2)C1=O [B]",
    "quantity_measured": "MIC",
    "recorded_measurement": 1
  },
  {
    "compound": "C=CC1=C(C(=O)O)N2C(=O)[C@@H](NC(=O)/C(=N\\O)c3csc(N)n3)[C@H]2SC1 [Cefdinir, reference compound]",
    "quantity_measured": "MIC",
    "recorded_measurement": 0.5
  },
  {
    "compound": "CO/N=C(\\C(=O)N[C@@H]1C(=O)N2C(C(=O)O)=C(CSc3nc(=O)c(=O)[nH]n3C)CS[C@H]12)c1csc(N)n1 [Ceftriaxone, reference compound]",
    "quantity_measured": "MIC",
    "recorded_measurement": 4
  },
  {
    "compound": "CC(C)CN1CC/C(=C\\C2=C(C(=O)O)N3C(=O)[C@@H](NC(=O)/C(=N\\O)c4csc(N)n4)[C@H]3SC2)C1=O.O=C(O)C(F)(F)F [A]",
    "quantity_measured": "MIC",
    "recorded_measurement": 1
  }
]

Pending compound:
Measured MIC for this entry Nc1nc(/C(=N/O)C(=O)N[C@@H]2C(=O)N3C(C(=O)O)=C(/C=C4\CCN(CC5CCCCC5)C4=O)CS[C@H]23)cs1 [C] on S. aureus 6538: 1
